From: patent US20170249408A1

Can you tell me BI for the items I'm about to list?
assay: Blocker Index (BI), expert graders, isovaleric acid malodorous swatch; parameters: key: Blocker Index, expert-graded scale 0 to 3 (0 = clean swatch anchor); conditions: Conc 50 ppm of test material on isovaleric acid malodorous swatch
# respond with the number and nothing more

Data request: Would you kindly share the measured BI for C=C1CCC2OC2(C)CCC2C1CC2(C)C (stereo not drawn) ?
Data returned: 2.3

Data request: Would you kindly share the measured BI for CC(CCO)CCc1ccccc1 (stereo not drawn) ?
Data returned: 1.7

Data request: Would you kindly share the measured BI for C=CC(C)=CCC=C(C)C ?
Data returned: 2.8

====

assay: Blocker Index (BI), expert graders, isovaleric acid malodorous swatch; set-up: key: Blocker Index, expert-graded scale 0 to 3 (0 = clean swatch anchor); details: Conc 50 ppm of test material on isovaleric acid malodorous swatch
Can you tell me BI for the items I'm about to list?
# respond with the number and nothing more

Data request: Would you kindly share the measured BI for CC(=O)OCCCCCCC(C)C [Material 204] ?
Data returned: 2.7

Data request: Would you kindly share the measured BI for CCC(O)COC1CCCCC1C(C)(C)C (stereo not drawn) [Material 677] ?
Data returned: 2.0

Data request: Would you kindly share the measured BI for CC1(C)C2CCC3(C2)C1C(=O)CCC3(C)C (stereo not drawn) [Material 1149] ?
Data returned: 2.3

Data request: Would you kindly share the measured BI for O=C1CCC2CCCCC2O1 (stereo not drawn) [3,4,4a,5,6,7,8,8a-octahydrochromen-2-one] ?
Data returned: 2.0

Data request: Would you kindly share the measured BI for CCCCCCCCCCCCO [Material 174] ?
Data returned: 2.3

Data request: Would you kindly share the measured BI for CC(C)(C)C1CCCCC1 [4-tert-butyl cyclohexane] ?
Data returned: 2.0

Data request: Would you kindly share the measured BI for CC1(C)CCc2ccc(CCC=O)cc21 [Material 261] ?
Data returned: 1.3

Data request: Would you kindly share the measured BI for CCCCCCCCCCCC(=O)OCC [Material 391] ?
Data returned: 2.2

Data request: Would you kindly share the measured BI for CCCCCCCCCCCO [Undecanol] ?
Data returned: 2.3

Data request: Would you kindly share the measured BI for CCOC(=O)OC1C(C)CCC(C)C1C (stereo not drawn) [Material 1005] ?
Data returned: 2.6

Data request: Would you kindly share the measured BI for COC(=O)OC1CC/C=C\CCC1 (stereo not drawn) [Material 1139] ?
Data returned: 2.7

Data request: Would you kindly share the measured BI for CC(=O)OC1CC2CC1C1CC=CC21 (stereo not drawn) [Material 281] ?
Data returned: 2.0

====

experiment: Blocker Index (BI), expert graders, isovaleric acid malodorous swatch; set-up: key: Blocker Index, expert-graded scale 0 to 3 (0 = clean swatch anchor); conditions: Conc 10 ppm of test material on isovaleric acid malodorous swatch
METRIC: BI
# respond with the number and nothing more

Data request: Would you kindly share the measured BI for CCC(O)COC1CCCCC1C(C)(C)C (stereo not drawn) ?
Data returned: 2.3

Data request: Would you kindly share the measured BI for CC(=O)OCCCCCCC(C)C ?
Data returned: 2.0

Data request: Would you kindly share the measured BI for COC(=O)OC1CC/C=C\CCC1 (stereo not drawn) ?
Data returned: 2.0

Data request: Would you kindly share the measured BI for CC1(C)CCc2ccc(CCC=O)cc21 ?
Data returned: 1.8

Data request: Would you kindly share the measured BI for CC(C)(C)C1CCCCC1 ?
Data returned: 2.0

Data request: Would you kindly share the measured BI for CC1(C)C2CCC3(C2)C1C(=O)CCC3(C)C (stereo not drawn) ?
Data returned: 1.5

====

assay: Blocker Index (BI), expert graders, isovaleric acid malodorous swatch; parameters: key: Blocker Index, expert-graded scale 0 to 3 (0 = clean swatch anchor); conditions: Conc 10 ppm of test material on isovaleric acid malodorous swatch
METRIC: BI
# respond with the number and nothing more

Data request: Would you kindly share the measured BI for CC(=O)OC1CC2CC1C1CC=CC21 (stereo not shown) [Material 281] ?
Data returned: 2.0

Data request: Would you kindly share the measured BI for O=C1CCC2CCCCC2O1 (stereo not shown) [3,4,4a,5,6,7,8,8a-octahydrochromen-2-one] ?
Data returned: 2.0

Data request: Would you kindly share the measured BI for CCCCCCCCCCCCCCCC(=O)OC [Material 109] ?
Data returned: 2.0

Data request: Would you kindly share the measured BI for CC(CCO)CCc1ccccc1 (stereo not shown) [Material 962] ?
Data returned: 2.3
